Overview of reported maximal absorbance at 450 nm across a group of binders:
# tgt: tetanus neurotoxin (TeNT), authentic tetanus holotoxin (Clostridium tetani, UniProt P04958 2-1315)
# Sequence (P04958 2-457 limits assumed, chain 1 of 2): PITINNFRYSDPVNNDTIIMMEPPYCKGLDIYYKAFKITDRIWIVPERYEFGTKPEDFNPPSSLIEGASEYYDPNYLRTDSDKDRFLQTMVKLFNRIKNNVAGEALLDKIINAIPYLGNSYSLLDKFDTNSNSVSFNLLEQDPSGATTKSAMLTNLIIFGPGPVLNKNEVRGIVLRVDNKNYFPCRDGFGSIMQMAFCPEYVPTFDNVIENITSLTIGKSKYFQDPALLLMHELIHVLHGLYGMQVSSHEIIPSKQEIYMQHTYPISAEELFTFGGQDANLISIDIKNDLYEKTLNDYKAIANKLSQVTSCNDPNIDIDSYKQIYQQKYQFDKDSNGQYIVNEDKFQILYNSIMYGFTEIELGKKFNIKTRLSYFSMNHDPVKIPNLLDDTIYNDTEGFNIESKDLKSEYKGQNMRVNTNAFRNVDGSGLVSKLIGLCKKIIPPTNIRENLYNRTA
# Sequence (P04958 458-1315 limits assumed, chain 2 of 2): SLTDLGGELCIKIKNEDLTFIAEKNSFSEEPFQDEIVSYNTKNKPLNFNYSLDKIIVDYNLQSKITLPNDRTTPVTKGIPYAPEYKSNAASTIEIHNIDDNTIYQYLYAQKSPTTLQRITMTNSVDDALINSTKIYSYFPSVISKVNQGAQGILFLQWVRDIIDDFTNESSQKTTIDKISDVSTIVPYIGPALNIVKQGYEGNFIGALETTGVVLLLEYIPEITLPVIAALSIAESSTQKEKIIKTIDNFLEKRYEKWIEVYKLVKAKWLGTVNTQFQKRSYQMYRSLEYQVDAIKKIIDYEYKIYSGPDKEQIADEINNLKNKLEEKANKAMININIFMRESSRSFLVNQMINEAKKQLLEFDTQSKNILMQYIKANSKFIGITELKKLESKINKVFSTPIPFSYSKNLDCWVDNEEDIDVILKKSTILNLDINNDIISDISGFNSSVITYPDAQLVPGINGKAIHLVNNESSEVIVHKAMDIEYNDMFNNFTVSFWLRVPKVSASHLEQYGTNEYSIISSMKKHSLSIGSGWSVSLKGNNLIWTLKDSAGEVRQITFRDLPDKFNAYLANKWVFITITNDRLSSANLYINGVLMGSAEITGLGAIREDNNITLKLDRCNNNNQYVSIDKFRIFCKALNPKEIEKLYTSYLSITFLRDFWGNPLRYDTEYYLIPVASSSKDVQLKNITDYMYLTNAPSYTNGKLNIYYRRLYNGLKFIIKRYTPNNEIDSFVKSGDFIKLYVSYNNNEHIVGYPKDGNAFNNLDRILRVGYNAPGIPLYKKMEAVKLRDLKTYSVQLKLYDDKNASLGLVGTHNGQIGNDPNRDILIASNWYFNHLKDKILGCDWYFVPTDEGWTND
# test-name: ELISA, directly coated TeNT, biotinylated binder
Give only the figure.

SVT03L (VHH) VHH: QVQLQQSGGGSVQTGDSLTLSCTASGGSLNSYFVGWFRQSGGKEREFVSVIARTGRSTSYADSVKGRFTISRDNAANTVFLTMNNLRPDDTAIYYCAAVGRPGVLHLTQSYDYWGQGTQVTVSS : 0.233

Please fill in: maximal absorbance at 450 nm reported for SVT29L (VHH) VHH: QVQLQESGGGLVQTGGSLTLSCRAYGRAFDNYHFGWFRQAPGKDREFVASISWKGGSTYRANFALGRFTSSVNRGESSVYLHMSGLTPEDTATYYCAAHDGGDWNYHTGMDYWGKGILVTVSS = 1.13
